All figures here come from patent US20250282735A1.

# Tested on: NCI-H226 cells
# test-description: Proliferation assay (EdU incorporation), NCI-H226
# Assay type: cell-based
# applied-conditions: Homo sapiens, 72 h, YAP-driven NCI-H226 (NF2 mutation), 3 days with inhibitor, 1% serum
endpoint: IC50

C=CC(=O)Nc1ccc2c(c1)c(/C=C/C1CCC(F)(F)CC1)nn2C : ≤ 100 nM

Could you tell me IC50 for each of these molecules? They are listed below.
1. C=CC(=O)Nc1ccc2c(c1)c(/C=C/C1CCC(F)(F)CC1)cn2C
2. C=CC(=O)Nc1cnc2c(c1)c(/C=C/c1ccc(Cl)cc1)cn2C
3. C=CC(=O)Nc1ccc2c(c1)c(/C=C/C1CCC(F)(F)CC1)cn2CC
4. C=CC(=O)Nc1cnc2c(c1)c(/C=C/c1ccc(Cl)cc1)cn2C(F)F
5. C=CC(=O)Nc1ccc2c(c1)c(/C=C/c1ccc(Cl)cc1)cn2C(C)C

result:
1. 100 to 1000 nM
2. ≤ 100 nM
3. 100 to 1000 nM
4. 100 to 1000 nM
5. ≤ 100 nM
